Hello, the source for this data is PubChem BioAssay (NCI), in case you need it.

Test Description: NCI Yeast Anticancer Drug Screen. Data for the sgs1 mgt1 strain (AID 161);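 also: 0% = growth of cultures given vehicle only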
Protocol Conditions: S. cerevisiae sgs1 mgt1 strain, at 50.0 µM, active compounds read high
About 79,000 compounds went through this panel and 15% of them were active in at least one assay; those are over-represented in the sample as a whole.
Parameter: growth inhibition (%)

CCOC(=O)c1cc(CC)sc1N; 10.7
C/C(=N/S(=O)(=O)c1ccc(C)c(C)c1)OC(C)C; 7.95
Cc1ccc(C(=O)/C=C/c2ccco2)cc1; 46
CC(=O)Oc1cc2c(cc1OC(C)=O)C(=O)c1cc3c(cc1C2=O)OCO3; -1.3
O=C1CCC(=O)C(C(=O)CCC(=O)Nc2cccc(Cl)c2)C1 (centres undefined); -11.7
O=C(O)CCCCC1CCCC1; 12.2
CCN(CC)CCC(=O)c1ccc(OC)cc1; 2.45
Cc1ccc(S(=O)(=O)N/N=C2\CCC3CC3CC\C2=N/NS(=O)(=O)c2ccc(C)cc2)cc1 (centres undefined); 0.6
COC(=O)NCCCCl; 3.5

----------
Test Description: NCI Yeast Anticancer Drug Screen. Data for the bub3 strain (AID 167)
Protocol Conditions: S. cerevisiae bub3 mutant strain, at 50.0 µM, active compounds read high
Compounds without any hit were thinned out: in the full panel of roughly 79,000, 15% have a hit.
Catalogue of growth inhibition values
Parameter: growth inhibition (%)

COc1cccc(S(=O)(=O)c2c(C)cc(C)cc2C)c1; 1.1
COC(=O)c1nn(-c2ccccc2)c(=O)cc1N=[N+]=[N-]; -14.2
CC(=O)NC1C(OCc2ccccc2)OC(CO)C(O)C1OC(C)C(=O)NC(C)C(=O)N[C@@H](CCC(=O)OCCCNC1c2ccccc2Nc2cccc([N+](=O)[O-])c21)C(N)=O (some centres not stated); 11.7
CCc1ccc(NC(C)=O)cc1C; -1.15
N/N=C(\C(=O)Nc1c(Cl)cc([N+](=O)[O-])cc1Cl)C(c1cnc2ccc([N+](=O)[O-])cc2n1)[N+](=O)[O-] (configuration not stated); -23.5
NC(=O)c1sc(N2CCCC2)nc1N; 9.8
CSc1nc2nc[nH]c2c(=O)[nH]1; -1.85
COc1ccc(Cl)cc1/C=C\C=N\OCC(=O)O; -5.85
Clc1nc(Cl)c2ncn(C3CCCO3)c2n1 (configuration not stated); 44
O=CC1=CCC2c3[nH]c4ccccc4c3CCN2C1 (configuration not stated); 28.2
Cc1ccc(O)c(C(=O)c2ccc(Cl)c(Cl)c2)c1; 58.1
CCCCCC(Nc1nncs1)Nc1nncs1; 8.4
CCCCCCCCCCCCCCCCN(O)C(=O)c1cnc[nH]1; 11.1
CC(C)(C)OC(=O)C1=C2C=C(O)C=CC2(C)N(Cc2ccccc2)C1=N (configuration not stated); -24.6
CC(=O)NCCc1[nH]cnc1N=Nc1ccc(Br)cc1; 52.1
Cc1ccccc1N1C(N)=C(C#N)C(C#N)(C#N)C1c1ccccc1 (configuration not stated); -12.4
FCCN(CCF)Cc1ccc2c(c1)OCO2; -3.1

----------
Test Description: NCI Yeast Anticancer Drug Screen. Data for the mlh1 rad18 strain (AID 175)
Protocol Conditions: S. cerevisiae mlh1 rad18 strain growth inhibition; at 50.0 µM; active compounds read high
Method: Growth inhibition of yeast strains with defined genetic alterations is measured as a screen for potential anti-cancer activity. Selected strains with alterations in DNA damage repair or cell cycle control were exposed to compounds and growth inhibition was measured relative to vehicle treated controls. The strain used in this assay is mlh1 rad18
This is part of a sample that, as a whole, favours compounds with a hit. Of some 79,000 tested, about 15% had one in any assay. *1 amine or outer side, *2 acyl side, *3 side chain or, on linkers, in order; H or OH if unused. Where a SMILES comes first, the peptide text is derived from it. Bridges are numbered along the chain shown (N, C = ends). Roman numbers before positions name the chains, in order. [ ]: non-standard residue; d: D form. Actinocin(9to1) = Cc1c2oc3c(C)ccc(C(=O)[*:1])c3nc-2c(C(=O)[*:2])c(N)c1=O; NMeT = CN[CH](C(=O)O)[CH](C)O; Sar = CNCC(=O)O
Recorded measurements of growth inhibition, one per entry
Parameter: growth inhibition (%)

CSc1nc(N)c(C(N)=O)cc1C#N; 8.55
Clc1ccc(Cl)s1; 26.1
Cc1cc2nnnn2c2ccccc12; -19.8
CCOC(=O)/C=C/C(=O)NNS(=O)(=O)CCC(N)C(=O)O (stereo not given); 0.45
CCc1ccc(-c2c(-c3ccccc3)c(-c3ccccc3)c(-c3ccccc3)c(-c3ccccc3)c2-c2ccccc2)cc1; 30.9
CC(=O)NCC1(c2ccccc2)CCN(Cc2ccccc2)CC1; -14.2
Cc1c2oc3c(C)ccc(C(=O)NC4C(=O)NC(C(C)C)C(=O)N5CCCC5C(=O)N(C)CC(=O)N(C)C(C(C)O)C(=O)OC4C)c3nc-2c(C(=O)NC2C(=O)NC(C(C)C)C(=O)N3CCCC3C(=O)N(C)CC(=O)N(C)C(C(C)O)C(=O)OC2C)c(N)c1=O (stereo not given) (I: TVP[Sar][NMeT] / II: TVP[Sar][NMeT]; ester I:1-I:C, II:1-II:C; linker I:N-II:N via Actinocin(9to1); configuration not given here); -52.5
O=C(Nc1ccccc1F)C(c1ccccc1)c1ccccc1; 4
CC1(C)CC(=O)C(C(c2ccccc2)C2C(=O)CC(C)(C)CC2=O)C(=O)C1; 7
C1CCOC2(CCC3(CC2)OCCCCO3)OC1; -39.4
CCCCCCCCCC/C=C/C=O; 8.9
CC(=O)c1ccc(N=NN2CCCC2)cc1; 2.7
CC(=O)OC12CC(C)C3(O)C4C=C(C)C(=O)[C@@]4(O)CC(CO)=C[C@H]3C1C2(C)C (stereo not given in full); 2.05
CCC12CC(=O)CCC1CCc1ccc(OC)c(OC)c12 (stereo not given); 22.2
COCC(N=CN1CCCc2ccccc2[C@@H]1CCCCl)C(C)(C)C (stereo not given in full); 13.1
Cc1ccc([N+](=O)[O-])cc1NC(=O)COc1ccc(Cl)cc1Cl; 1.15
O=[N+]([O-])c1c(Cl)cc(Cl)c([N+](=O)[O-])c1-c1ccccc1; -31.7
CC1(C)CC(=O)c2c(N)n[nH]c2C1; -15
CCSC(=S)S(=O)(=O)c1ccc(C)cc1; 92.3
O=[N+]([O-])c1ccc(C[N+]2(CCC[N+]3(Cc4ccc([N+](=O)[O-])cc4)CCCC3)CCCC2)cc1; 2.3
COC1=C(C(c2cc(OC)c(OC)c(OC)c2)c2cc3c(cc2OC)OCO3)C(=O)OC1 (stereo not given); 13.4
C[C@H]1C[C@](C)(CO)Oc2oc3ccccc3c(=O)c21; 13.1
Cc1cc2sc(C)[n+](CCCOS(=O)(=O)[O-])c2cc1C; -35.9
Cn1c(=O)c2c(ncn2CCN2CCNCC2)n(C)c1=O; 3.9
c1ccc(C2N3CCCCC3[C@@H]3c4[nH]c5ccccc5c4CCN23)nc1 (stereo not given in full); -4.1
O=C(CCCCCCCCC(=O)NO)NO; -2.5
CC(=O)OC(C)C1(C)CCC2CCCC(C)(C)C2C1 (stereo not given); -13.7
Cc1cc([N+](=O)[O-])ccc1NC(=O)OC(C)C; -9.35
O=C1CCCCCCCC(=O)Nc2ccc3nc4ccccc4c(c3c2)SCCCCCCCCCCCCSc2c3ccccc3nc3ccc(cc23)N1; -10.3
CN=C1CC2CCCC1C2 (stereo not given); -15.4
CCCCCCCCCCCCCCCCS(=O)(=O)N/N=C(/c1cccc(N)c1)N1CCOCC1; -21.2
CS(=O)(=O)OCCOc1ccccc1; 8.05
C=C1CCC2C(C)(CO)C(O)CCC2(C)C1CCC1=CCOC1=O (stereo not given); -8.05
CN1CCN(C(=S)C(O)(c2ccccc2)c2ccccc2)CC1; -8.6
Cc1cc(S(=O)(=O)Nc2cc(N)[nH]n2)c(SCc2nc(N)nc(N(C)C)n2)cc1Cl; 8.05

----------
Test Description: NCI Yeast Anticancer Drug Screen. Data for the rad50 strain (AID 155);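 also: 0% = growth of vehicle-only cultures of the same strain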
Protocol Conditions: S. cerevisiae rad50 strain growth inhibition; at 50.0 µM
About 79,000 compounds went through this panel and 15% of them were active in at least one assay; those are over-represented in the sample as a whole. Activity calls are given as the source filed them. Cut-off read from the data, not from the text of the source: active = growth inhibition above about 70%; inactive = the rest.
Outcome codes: active, inactive

COc1ccc(C(=O)CC(=O)C2CCCCC2=O)cc1 (stereo not drawn); inactive
CCCCCCCCC/C=C1\CCC(CN2CCOCC2)C1=O (stereo not drawn); active
CC(=O)Nc1ccc2ccc3ccccc3c2c1; inactive
COCOC(C)=O; inactive
Clc1ccc(C2N(Cc3ccccc3)CCC3CCCCN32)cc1Cl (stereo not drawn); inactive
O=C1C(Br)=C(c2ccccc2)C(c2ccccc2)=C1c1ccccc1; inactive
Cc1cccc(C)c1NC(=S)N(CCC#N)Cc1ccccc1; inactive
CC1=NC2(CCCCC2)N(Cl)C(=O)C1SC#N (stereo not drawn); inactive
CC(=O)OCC1OC(Sc2cccc3ccccc23)C(OC(C)=O)C(OC(C)=O)C1OC(C)=O (stereo not drawn); inactive
Nc1ncnc2nc(N=Nc3ccc(S(=O)(=O)O)cc3)[nH]c12; inactive
CCOC(=O)OCCOCCOC(=O)OCC; inactive
CC(C)CC(NC(=O)C(COC(C)(C)C)NC(=O)C(CSC(c1ccccc1)(c1ccccc1)c1ccccc1)NC(=O)OC(C)(C)C)C(=O)OC(C)(C)C (stereo not drawn); inactive
COc1ccc(C2CC(=O)Oc3ccccc3O2)cc1 (stereo not drawn); inactive
C=C(C)c1ccc(F)cc1; inactive
C=C1C(=O)OC2C1C(OC(=O)/C(=C/C)COC(C)=O)CC1(CO1)C1C(OC(=O)/C(=C/C)CO)C=C(C)C21 (stereo not drawn); inactive
CCOC(=O)N1CCN(c2ccc3ccc(N)nc3n2)CC1; inactive
O=C(Cc1ccccc1)N(C(=O)c1ccccc1)c1ccccc1; inactive
CC(C)(c1ccccc1)C(C)(C)c1nc(-c2ccccc2)cc(-c2ccccc2)n1; inactive
